Data credit: ChEMBL document CHEMBL1151569

- assayed.target: Histamine H1 receptor (Cavia porcellus) (UniProt P31389)
- Sequence (P31389 whole entry): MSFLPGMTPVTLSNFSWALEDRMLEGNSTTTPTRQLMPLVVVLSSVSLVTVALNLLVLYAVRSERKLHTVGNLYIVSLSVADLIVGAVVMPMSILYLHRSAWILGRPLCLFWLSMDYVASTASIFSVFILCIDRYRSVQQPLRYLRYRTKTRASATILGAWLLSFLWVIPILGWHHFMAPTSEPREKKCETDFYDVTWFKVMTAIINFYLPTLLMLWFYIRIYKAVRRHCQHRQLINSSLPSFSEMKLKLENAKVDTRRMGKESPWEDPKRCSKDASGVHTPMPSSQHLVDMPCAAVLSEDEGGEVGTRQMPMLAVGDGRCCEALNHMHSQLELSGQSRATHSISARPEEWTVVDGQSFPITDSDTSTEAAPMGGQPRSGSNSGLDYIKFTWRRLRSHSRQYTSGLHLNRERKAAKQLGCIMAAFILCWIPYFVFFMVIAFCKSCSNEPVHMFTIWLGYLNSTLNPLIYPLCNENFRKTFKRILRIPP
- test.name: In vitro antagonistic activity against histamine H1-receptor of guinea pig ileum
- Format: functional, tissue-based
parameter: Kb

Below: 3 molecules and their reported Kb.
smiles.text: c1ccc(COCCCc2c[nH]cn2)cc1
Kb: 20 µM

smiles.text: c1ccc(C(OCCCc2c[nH]cn2)c2ccccc2)cc1
Kb: 0.501 µM

smiles.text: N=C(NCc1ccc(Cl)cc1)SCCCc1c[nH]cn1
Kb: > 1 µM

Then there is this molecule:
Report measured Kb; entry is S=C(NC1CCCCC1)N1CCC(c2cnc[nH]2)CC1
> 100 µM

----------
Reported Ki values for a set of compounds
- assayed.target: UniProt Q9QYN8
- Sequence (Q9QYN8 whole entry): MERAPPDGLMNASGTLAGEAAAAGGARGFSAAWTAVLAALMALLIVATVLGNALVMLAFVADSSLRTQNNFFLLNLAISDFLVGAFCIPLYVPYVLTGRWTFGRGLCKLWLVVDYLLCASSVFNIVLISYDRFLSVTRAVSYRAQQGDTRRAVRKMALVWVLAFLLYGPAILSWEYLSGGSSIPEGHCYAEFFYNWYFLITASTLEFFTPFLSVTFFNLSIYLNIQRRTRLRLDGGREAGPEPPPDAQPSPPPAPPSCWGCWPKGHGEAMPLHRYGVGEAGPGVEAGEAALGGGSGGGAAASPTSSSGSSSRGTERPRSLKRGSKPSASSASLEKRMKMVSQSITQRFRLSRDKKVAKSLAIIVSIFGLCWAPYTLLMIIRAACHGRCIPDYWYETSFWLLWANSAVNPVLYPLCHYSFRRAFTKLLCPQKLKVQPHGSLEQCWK
- test.name: In vitro antagonistic activity against histamine H3-receptor in an assay with K+-evoked depolarisation-induced release of [3H]histamine of synaptosomes of rat cerebral cortex
Form entry: value (nM) — number only.

compound: c1ccc2c(COCCCc3c[nH]cn3)cccc2c1
assayed.target: UniProt Q9QYN8
assay.result: 20
//
compound: c1ccc(C(OCCCc2c[nH]cn2)c2ccccc2)cc1
assayed.target: UniProt Q9QYN8
assay.result: 25.1
//
compound: Fc1ccc(C(OCCCc2c[nH]cn2)c2ccc(F)cc2)cc1
assayed.target: UniProt Q9QYN8
assay.result: 25.1
//
compound: Brc1ccc(C(OCCCc2c[nH]cn2)c2ccccc2)cc1 (configuration not stated)
assayed.target: UniProt Q9QYN8
assay.result: 126
//
compound: Fc1ccc(C(OCCCc2c[nH]cn2)c2ccccc2)cc1 (configuration not stated)
assayed.target: UniProt Q9QYN8
assay.result: 25.1
//
compound: c1ccc(COCCCc2c[nH]cn2)cc1
assayed.target: UniProt Q9QYN8
assay.result: 20

Then there is this compound:
Report measured Ki; entry is FC(F)(F)c1ccc(C(OCCCc2c[nH]cn2)c2ccccc2)cc1 (configuration not stated)
200
